FYI, the data here is from PubChem BioAssay (NCI).

# System: LOX IMVI melanoma
# TEST_METHOD_NOTES: NCI-60 one-dose screen, 48 h
# MEASUREMENT_CONTEXT: 10 µM unless noted
The panel holds about 83,000 compounds, 20% with a hit somewhere; the sample as a whole holds those more often. Calls of active or inactive are those of the source. Rule for the calls: active = growth percent below 10; inactive = the rest.
# output must be one of active, inactive

COMPOUND | ASSAYED_SYSTEM | CLASS_NAME
Clc1ccc2[nH]cc(-c3cncn3CCc3ccccc3)c2c1 | LOX IMVI melanoma | inactive
CCSc1nc(-c2cccs2)n2nc(-c3ccco3)cc2n1 | LOX IMVI melanoma | inactive
CCCc1n(Cc2ccc3ccccc3c2)cc[n+]1Cc1ccc2ccccc2c1 | LOX IMVI melanoma | active
c1ccc2c(-c3nc4ccccc4[nH]3)cccc2c1 | LOX IMVI melanoma | inactive
O=C(/C=C/c1ccc(C(F)(F)F)cc1)c1ccc(Nc2nc(NCCO)nc(NCCO)n2)cc1 | LOX IMVI melanoma | active
O=c1[nH]c(SCc2ccccc2)nc2nc(Nc3ccc(NC(=S)Nc4ccccc4)cc3)nc(-c3ccc(O)cc3O)c12 | LOX IMVI melanoma | inactive

Could you please tell me the result logged for COc1ccc(C(=O)COc2cccc(/C=C3\COc4ccc5ccccc5c4C3=O)c2)cc1 in this assay?
inactive

Could you please tell me the result logged for O=C(COc1cccc(/C=C2\Cc3ccccc3C2=O)c1)c1ccc(Cl)cc1 in this assay?
inactive

Could you please tell me the result logged for Cc1onc(-c2ccccc2Cl)c1C(=O)N[C@@H]1C(=O)N2[C@@H]1SC(C)(C)[C@@H]2C(=O)O in this assay?
inactive
